Cited source for all entries: PubChem BioAssay

Catalogue of z-score values
Assay: basal HepG2 mitochondrial membrane potential changes, profiling panel, cell-based, JC-1 fluorescence, 24 h, 100 nL compound (AID 1167); further: test concentration not given here
Conditions: higher = more signal
Observed property: z-score

molecule=CC(=O)OC[C@H]1O[C@H](C#CCCc2ccccc2)C=C[C@@H]1OC(C)=O observed_property=z-score observed_result=-0.972
molecule=COC(=O)CC=C[C@@H](C)[C@@H](C=NOC[C@@H](O)COCc1ccco1)OC observed_property=z-score observed_result=-0.327
molecule=CC(C)CON=C1C[C@@H](O)[C@@H](O)[C@@H]2[C@@H]3C(=O)N(Cc4ccccc4)C(=O)[C@@H]3CC[C@H]12 observed_property=z-score observed_result=0.974
molecule=COc1ccc(O[C@H]2C=C[C@@H](c3ccccc3)O[C@@H]2COC(=O)CCC(C)=NOC[C@@H](O)COCc2ccco2)cc1 observed_property=z-score observed_result=-0.918
molecule="CCOC(=O)[C@H](Cc1ccccc1)NC(=O)CCC1CC(OC(=O)NCc2cccc3ccccc23)CC2(CCCC(COC(=O)NCC3CCCCC3)O2)O1 (stereo partly specified)" observed_property=z-score observed_result=-0.00703
molecule=CC(=O)OC[C@H]1O[C@H](CCON=C(C)CCN2CCCc3nc(C)c(C)cc32)C=C[C@@H]1OC(C)=O observed_property=z-score observed_result=-0.689
molecule=C#CCCCON=C1[C@H]2CCn3c(=O)n([C@@H](CC)c4ccccc4)c(=O)n3[C@H]2[C@H](O)[C@@H]2O[C@H]12 observed_property=z-score observed_result=-0.696
molecule=CC1(C)O[C@H]2O[C@H]([C@H](O)CON=C3[C@H]4CCn5c(=O)n(-c6ccccc6)c(=O)n5[C@H]4[C@H](O)[C@@H]4O[C@H]34)[C@H](O)[C@H]2O1 observed_property=z-score observed_result=-0.494
molecule=CC(CCN1CCCCc2nc(C)c(C)cc21)=NOC[C@@H](O)[C@H]1O[C@@H]2OC(C)(C)O[C@@H]2[C@H]1O observed_property=z-score observed_result=-0.536
molecule="COC(=O)[C@H](C)NC(=O)CCC1CC(OC(=O)NCc2ccc3c(c2)OCO3)CC2(CCCC(COC(=O)NCCc3ccc(Cl)cc3)O2)O1 (stereo partly specified)" observed_property=z-score observed_result=0.718
molecule="CCOC(=O)[C@H](Cc1ccccc1)NC(=O)CCC1CC(OC(=O)NCc2cccc3ccccc23)CC2(CCCC(COC(=O)NCCOc3ccccc3)O2)O1 (stereo partly specified)" observed_property=z-score observed_result=0.161
